System: Colletotrichum graminicola (CGR; isolate Carroll-IA-99)
Assay type: cell-based
RECORDED CONDITIONS: high salt conditions
MEASURED QUANTITY: In vitro antifungal activity (IC50) against C. graminicola (CGR)
Value and unit, in that order.

LB-9827-3A-11E4: LBNL variant generated through gene shuffling of the LB-9827-1 mature peptide coding sequence (LSKYGGECSRKHNTCTYKKGGKNQIVNCPTAANKRCKTDRHHCEYDEYHRRVDCQTPV; LB-9827-3A-11E4)    1.25 ppm

// switching to the query substance
Requested field: In vitro antifungal activity (IC50) against C. graminicola (CGR). Item: LB-5220 (r2 6F2): LBNL variant generated through gene shuffling of the LB-5220 mature peptide coding sequence (LKYTGTCRRANNQCKYKGQNNRDTFVKCPTFANKKCTRDGEKCSFDSYSRAVTCD; LB-5220 (r2-6F2))
12 ppm

---

Test system: Colletotrichum graminicola (CGR; isolate Carroll-IA-99)
Type: cell-based
RECORDED CONDITIONS: high salt conditions
Reported In vitro antifungal activity (IC50) against C. graminicola (CGR) values are given for each entry in this list.
Expressed in ppm, but write only the number.

LB-9827-3B-21E10: LBNL variant generated through gene shuffling of the LB-9827-1 mature peptide coding sequence (LSKYGGECSRAHNTCTYRKGGKNQVVNCPSAANKKCKSDRHHCEYDEYHKRVDCQTPV; Synthetic peptide LB-9827-3B-21E10)    1.25
LB-9827-3B-26G11: LBNL variant generated through gene shuffling of the LB-9827-1 mature peptide coding sequence (LSKYGGECSKEHNTCKYLKGGKNQVVACPKAANKKCKTDRHHCEYDEYHKTVDCQTPV; Synthetic peptide LB-9827-3B-26G11)    0.63
LB-9827-3B-25F2: LBNL variant generated through gene shuffling of the LB-9827-1 mature peptide coding sequence (LSKYGGECSREHNTCTYLKGGKNQVVACGSAANKKCKRDRHHCEYDDYHKTVDCQTPV; Synthetic peptide LB-9827-3B-25F2)    1.25
LB-9827-3B-25G5: LBNL variant generated through gene shuffling of the LB-9827-1 mature peptide coding sequence (LSKYGGECSRAHNTCTYRKGGKNQVVKCGTAANKKCKSDRHHCEYDDYHKRVDCQTPV; Synthetic peptide LB-9827-3B-25G5)    1.25

// switching to the query substance
Requested field: In vitro antifungal activity (IC50) against C. graminicola (CGR). Item: LB-5220 (r2 5G7): LBNL variant generated through gene shuffling of the LB-5220 mature peptide coding sequence (LKYTGTCRRANNQCKYKGQNNRDTFVKCPTFANKKCTRDGAKCSFDSYSRAVTCD; Synthetic peptide LB-5220 (r2-5G7))
6
